Where do the numbers come from? From patent US20210079109A1.

- TARGET DESC: T1, human CD63 (human, UniProt P08962 2-238)
- T1 construct: stably transfected in NIH3T3/hCD63; The cell line is named under assay; also called hCD63
- T1 sequence: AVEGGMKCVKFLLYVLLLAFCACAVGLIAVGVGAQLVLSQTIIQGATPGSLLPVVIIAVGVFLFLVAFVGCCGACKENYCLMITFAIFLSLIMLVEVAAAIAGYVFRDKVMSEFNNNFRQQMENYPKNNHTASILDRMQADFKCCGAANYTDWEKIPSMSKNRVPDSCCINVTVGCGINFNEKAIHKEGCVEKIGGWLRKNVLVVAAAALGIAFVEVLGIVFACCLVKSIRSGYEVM
- ASSAY COMMENT: ECL, NIH3T3/hCD63 cells

# BINDER, binding ratio at 3.7 nM vs NIH3T3 (fold)
records = [
    ("H2M13022N (antibody, V domains shown, also called H2bM13022N) VH: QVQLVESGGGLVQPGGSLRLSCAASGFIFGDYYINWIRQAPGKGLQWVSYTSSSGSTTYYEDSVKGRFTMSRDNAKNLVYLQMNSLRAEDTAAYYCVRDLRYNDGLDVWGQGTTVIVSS VL: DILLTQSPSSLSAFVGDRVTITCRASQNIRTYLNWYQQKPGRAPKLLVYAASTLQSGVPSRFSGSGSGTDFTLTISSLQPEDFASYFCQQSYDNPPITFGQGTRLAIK", 95),
    ("H2M12454N (antibody, V domains shown, also called H2bM12454N) VH: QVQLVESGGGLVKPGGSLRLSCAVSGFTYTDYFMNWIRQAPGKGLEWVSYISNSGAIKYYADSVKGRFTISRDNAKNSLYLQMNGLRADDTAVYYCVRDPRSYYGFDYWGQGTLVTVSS VL: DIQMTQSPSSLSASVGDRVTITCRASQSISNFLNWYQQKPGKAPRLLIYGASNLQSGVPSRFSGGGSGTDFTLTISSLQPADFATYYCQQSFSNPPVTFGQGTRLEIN", 175),
    ("H1M12386N (antibody, V domains shown) VH: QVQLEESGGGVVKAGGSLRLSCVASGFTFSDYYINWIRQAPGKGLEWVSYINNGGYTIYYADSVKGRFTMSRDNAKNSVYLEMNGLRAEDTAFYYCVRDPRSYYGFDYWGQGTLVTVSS VL: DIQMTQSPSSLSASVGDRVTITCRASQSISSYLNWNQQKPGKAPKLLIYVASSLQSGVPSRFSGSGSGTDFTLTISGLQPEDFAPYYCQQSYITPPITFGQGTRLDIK", 220),
]
